Values from patent US4904666A

System: passively sensitized strip of pulmonary parenchyma (guinea pig)
Protocol text: inhibition of antigen-induced constriction of passively sensitized guinea pig pulmonary parenchyma strips in vitro (organ bath)
Assay type: cell-based, guinea pig (Pirbright-White)
Condition: Cavia porcellus, 20 min; Superfusion; Concentration 10/μM (so in the source); test substance preincubated 20 minutes at 37° C., then ovalbumin constriction; percentage reduction of constriction amplitude vs untreated control constrictions
Recorded inhibition at 10 µM values for a group of compounds are listed next.
Only the number, expressed in %, is required.

OCC(O)Cn1ncc2c(N(Cc3cccc(C(F)(F)F)c3)C3CCCC3)ncnc21 (stereo not shown) | 36
Clc1ccc(CN(c2ncnc3[nH]ncc23)C2CCCC2)cc1Cl | 32
Clc1ccc(Cl)c(CN(c2ncnc3[nH]ncc23)C2CCCC2)c1 | 29
N#Cc1cccc(CN(c2ncnc3[nH]ncc23)C2CCCC2)c1 | 35

Item under review: CCOC(=O)c1cccc(CN(c2ncnc3[nH]ncc23)C2CCCC2)c1 . Reported inhibition at 10 µM? 40

Item under review: Cc1ccc(C)c(CN(c2ncnc3[nH]ncc23)C2CCCC2)c1 . Reported inhibition at 10 µM? 32

Item under review: c1csc(CN(c2ncnc3[nH]ncc23)C2CCCC2)c1 . Reported inhibition at 10 µM? 37

Item under review: c1coc(CN(c2ncnc3[nH]ncc23)C2CCCC2)c1 . Reported inhibition at 10 µM? 39

Item under review: COc1cccc(CN(c2ncnc3[nH]ncc23)C2CCCC2)c1 . Reported inhibition at 10 µM? 36

Item under review: Cc1ccc(Cl)cc1CN(c1ncnc2[nH]ncc12)C1CCCC1 . Reported inhibition at 10 µM? 32
